Entry source: paper PMC3985620

TESTED SYSTEM: T1, Lin28 (Lin28A) (Mus musculus (murine), UniProt Q8K3Y3 1-209)
T1 sequence: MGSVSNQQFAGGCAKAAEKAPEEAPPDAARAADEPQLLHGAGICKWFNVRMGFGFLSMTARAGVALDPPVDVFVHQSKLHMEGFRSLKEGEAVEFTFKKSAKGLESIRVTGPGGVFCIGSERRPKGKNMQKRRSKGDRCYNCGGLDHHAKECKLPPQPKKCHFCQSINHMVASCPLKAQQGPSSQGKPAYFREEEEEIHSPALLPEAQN
ASSAY EXPLANATION: EMSA; Hill n = 1.46 ± 0.01; EMSA: 50 mM Tris pH 7.6, 50 mM NaCl, 10% glycerol, 0.05% NP-40 alternative, 2 mM DTT, 4°C; 2-AP: 50 mM Tris pH 7.6, 50 mM NaCl, 10% glycerol, 4°C; FRET: EMSA buffer, 30°C
CONDITIONS USED: protein: recombinant; label: 5'-32P; hairpin
PROPERTY LABEL: Kd (nM)

- GCAGAUUGAGGGUCUAUGAUACCGCAAGGUACAGGAGAUAUCUGCA (structured_RNA) [TL-let-7g GNRA loop]: 0.4
